System: tet operator sequence
PROTOCOL_DETAILS: β-galactosidase activity of a tetracycline-regulated promoter in transformed E. coli with revTetR, in the presence and absence of anhydrotetracycline (atc)
Format: cell-based, Escherichia coli
DETAILS: RevTetR isolate cultured in the presence of anhydrotetracycline (ATC)
In this section we review reported β-Galactosidase Activity, Cultured With ATC values for a set of molecules.

## Input Which β-Galactosidase Activity, Cultured With ATC value is on record for TetRrevAtc4-10: revTetR(BD) I59N L60F A61G (protein, Modified tetracycline repressor, revTetR(BD) I59N L60F A61G) MSRLDKSKVINSALELLNEVGIEGLTTRKLAQKLGVEQPTLYWHVKNKRALLDALAVENFGRHHDYSLPAAGESWQSFLRNNAMSFRRALLRYRDGAKVHLGTRPDEKQYDTVETQLRFMTENGFSLRDGLYAISAVSHFTLGAVLEQQEHTAALTDRPAAPDENLPPLLREALQIMDSDDGEQAFLHGLESLIRGFEVQLTALLQIV ?
## Output 11.275

## Input Which β-Galactosidase Activity, Cultured With ATC value is on record for TetRrevAtc4-25: revTetR(BD) K48K V57L E58V I59T L60F R62S (protein, Modified tetracycline repressor, revTetR(BD) K48K V57L E58V I59T L60F R62S) MSRLDKSKVINSALELLNEVGIEGLTTRKLAQKLGVEQPTLYWHVKNKRALLDALALVTFASHHDYSLPAAGESWQSFLRNNAMSFRRALLRYRDGAKVHLGTRPDEKQYDTVETQLRFMTENGFSLRDGLYAISAVSHFTLGAVLEQQEHTAALTDRPAAPDENLPPLLREALQIMDSDDGEQAFLHGLESLIRGFEVQLTALLQIV ?
## Output 12.116

## Input Which β-Galactosidase Activity, Cultured With ATC value is on record for TetRrev4/6-7: revTetR(BD) L55L L60V A97V V99G (protein, Modified tetracycline repressor, revTetR(BD) L55L L60V A97V V99G) MSRLDKSKVINSALELLNEVGIEGLTTRKLAQKLGVEQPTLYWHVKNKRALLDALAVEIVARHHDYSLPAAGESWQSFLRNNAMSFRRALLRYRDGVKGHLGTRPDEKQYDTVETQLRFMTENGFSLRDGLYAISAVSHFTLGAVLEQQEHTAALTDRPAAPDENLPPLLREALQIMDSDDGEQAFLHGLESLIRGFEVQLTALLQIV ?
## Output 2.151

## Input Which β-Galactosidase Activity, Cultured With ATC value is on record for TetRrev96/99-1: revTetR(BD) G96H V99R (protein, Modified tetracycline repressor, revTetR(BD) G96H V99R) MSRLDKSKVINSALELLNEVGIEGLTTRKLAQKLGVEQPTLYWHVKNKRALLDALAVEILARHHDYSLPAAGESWQSFLRNNAMSFRRALLRYRDHAKRHLGTRPDEKQYDTVETQLRFMTENGFSLRDGLYAISAVSHFTLGAVLEQQEHTAALTDRPAAPDENLPPLLREALQIMDSDDGEQAFLHGLESLIRGFEVQLTALLQIV ?
## Output 25.484

## Input Which β-Galactosidase Activity, Cultured With ATC value is on record for TetRrev96/99-17: revTetR(BD) G96T V99K (protein, Modified tetracycline repressor, revTetR(BD) G96T V99K) MSRLDKSKVINSALELLNEVGIEGLTTRKLAQKLGVEQPTLYWHVKNKRALLDALAVEILARHHDYSLPAAGESWQSFLRNNAMSFRRALLRYRDTAKKHLGTRPDEKQYDTVETQLRFMTENGFSLRDGLYAISAVSHFTLGAVLEQQEHTAALTDRPAAPDENLPPLLREALQIMDSDDGEQAFLHGLESLIRGFEVQLTALLQIV ?
## Output 8.4558
